Each entry below lists one item and its recorded %Inh value.
- Tested on: TRKB;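 also: KINOMEscan kinase panel screen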
- measurement conditions: concentration: 1 μM, replicates: in singlicate; n = 1
// note: answer is a bare numeric in %

Consider the reported %Inh for these compounds:
CC(C)c1ccc(O)cc1Nc1ccnc2ccc(C(F)(F)F)cc12 [GW482059]
11
Cc1c(Cn2c(C)c(C)n3c(=O)cc(N4CCOCC4)nc23)cccc1C(F)(F)F [GSK2328680]
0
Cl.Cl.Cl.N#Cc1ccc(CCNc2nccc(-c3cccc(CN4CCNCC4)c3)n2)cc1 [GSK2137462]
0
CNc1cc(-c2ccc3c(N)n[nH]c3c2)nc(N)n1 [GSK2224810]
0
COc1ccc(CSc2nnc(-c3ccc4c(c3)CCO4)o2)cc1
0
COc1ccc(CSc2nnc(-c3ccc4ncsc4c3)o2)cc1C(F)(F)F
0
CNC(=O)c1ccc(C)c(-n2c(C)cc(OCc3ccc(F)cc3F)c(Br)c2=O)c1
0
Fc1ccc(-c2nc3n(c2-c2ccncc2)CCS3)cc1 [GI98581]
0

Now examine the next entry.
Returns the measured %Inh for the input compound. Input: Cc1ccc(NC(=O)Nc2ccccc2F)cc1-c1ccc(C(=O)Nc2ccncc2)cc1 [GSK1398477]
0
